System: MDA-MB-468
Assay: NCI60 five-dose screen
Format: cell-based
Settings: Homo sapiens, MDA-MB-468
METRIC: GI50 (µM)
Return type: number; implicit unit µM.

Exam item: Returns the measured GI50 for the input molecule. Input: CC[C@]12C=CCN3CC[C@@]4(c5ccc(OC)cc5N(C)[C@H]4[C@@](O)(C(=O)OC)[C@@H]1OC(=O)CCC[P+](c1ccccc1)(c1ccccc1)c1ccccc1OC)[C@@H]32 [9f]
Marked response: 0.129

Exam item: Returns the measured GI50 for the input molecule. Input: CC[C@]12C=CCN3CC[C@@]4(c5ccc(OC)cc5N(C)[C@H]4[C@@](O)(C(=O)OC)[C@@H]1OC(=O)CCCC[P+](c1ccc(OC)cc1)(c1ccc(OC)cc1)c1ccc(OC)cc1)[C@@H]32 [10b]
Marked response: 0.264

Exam item: Returns the measured GI50 for the input molecule. Input: CC[C@]12C=CCN3CC[C@@]4(c5ccc(OC)cc5N(C)[C@H]4[C@@](O)(C(=O)OC)[C@@H]1OC(=O)CCC[P+](c1ccc(F)cc1)(c1ccc(F)cc1)c1ccc(F)cc1)[C@@H]32 [9c]
Marked response: 1.5

---

System: Renal Cancer panel
Test: NCI60 five-dose screen, panel mean
Assay type: cell-based
Conditions: Homo sapiens, read-out: GI50 Mean
METRIC: GI50 (µM)
Return type: number; implicit unit µM.

Exam item: Returns the measured GI50 for the input compound. Input: CC[C@]12C=CCN3CC[C@@]4(c5ccc(OC)cc5N(C)[C@H]4[C@@](O)(C(=O)OC)[C@@H]1OC(=O)CCCC[P+](C1CCCCC1)(C1CCCCC1)C1CCCCC1)[C@@H]32 [10d]
Marked response: 8.36

Exam item: Returns the measured GI50 for the input compound. Input: CC[C@]12C=CCN3CC[C@@]4(c5ccc(OC)cc5N(C)[C@H]4[C@@](O)(C(=O)OC)[C@@H]1OC(=O)CCCC[P+](c1ccc(OC)cc1)(c1ccc(OC)cc1)c1ccc(OC)cc1)[C@@H]32 [10b]
Marked response: 4.34

Exam item: Returns the measured GI50 for the input compound. Input: CC[C@]12C=CCN3CC[C@@]4(c5ccc(OC)cc5N(C)[C@H]4[C@@](O)(C(=O)OC)[C@@H]1OC(=O)CCCC[P+](c1ccccc1)(c1ccccc1)c1ccccc1)[C@@H]32 [compound 4, reference compound]
Marked response: 4.87

Exam item: Returns the measured GI50 for the input compound. Input: CC[C@]12C=CCN3CC[C@@]4(c5ccc(OC)cc5N(C)[C@H]4[C@@](O)(C(=O)OC)[C@@H]1OC(=O)CCCC[P+](c1ccc(C)cc1)(c1ccc(C)cc1)c1ccc(C)cc1)[C@@H]32 [10a]
Marked response: 2.34

---

Tested on: M14
Assay: NCI60 one-dose screen
Assay type: cell-based
Settings: Homo sapiens; M14, 10 μM, one-dose; read-out: Growth percent
activity at 10 µM of -70% or higher: YES. Under -70%: NO.

Exam item: Is activity at 10 µM for CCC12C=CCN3CCC4(c5ccc(OC)cc5N(C)C4C(O)(C(=O)OC)C1OC(=O)c1ccc(C[P+](c4ccccc4)(c4ccccc4)c4ccccc4)cc1)C32 (centres unmarked) at or above -70%?
Marked response: NO

Exam item: Is activity at 10 µM for CC[C@]12C=CCN3CC[C@@]4(c5ccc(OC)cc5N(C)[C@H]4[C@@](O)(C(=O)OC)[C@@H]1OC(=O)CCC[P+](c1ccccc1)(c1ccccc1)c1ccccc1)[C@@H]32 [compound 3, reference compound] at or above -70%?
Marked response: YES

Exam item: Is activity at 10 µM for CC[C@]12C=CCN3CC[C@@]4(c5ccc(OC)cc5N(C)[C@H]4[C@@](O)(C(=O)OC)[C@@H]1OC(=O)CCC[P+](c1ccc(OC)cc1)(c1ccc(OC)cc1)c1ccc(OC)cc1)[C@@H]32 at or above -70%?
Marked response: NO

Exam item: Is activity at 10 µM for CC[C@]12C=CCN3CC[C@@]4(c5ccc(OC)cc5N(C)[C@H]4[C@@](O)(C(=O)OC)[C@@H]1OC(=O)CCC[P+](c1cc(C)c(OC)c(C)c1)(c1cc(C)c(OC)c(C)c1)c1cc(C)c(OC)c(C)c1)[C@@H]32 at or above -70%?
Marked response: NO

Exam item: Is activity at 10 µM for CC[C@]12C=CCN3CC[C@@]4(c5ccc(OC)cc5N(C)[C@H]4[C@@](O)(C(=O)OC)[C@@H]1OC(=O)CCCC[P+](c1ccc(F)cc1)(c1ccc(F)cc1)c1ccc(F)cc1)[C@@H]32 [10c] at or above -70%?
Marked response: YES
